From: paper PMC4336329

# Tested system: human ether-à-go-go-related gene (hERG) potassium channel (human, UniProt Q12809);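 also: peak tail current of the secondary pulse compared with the same well before compound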
# Sequence (Q12809 whole entry, looked up): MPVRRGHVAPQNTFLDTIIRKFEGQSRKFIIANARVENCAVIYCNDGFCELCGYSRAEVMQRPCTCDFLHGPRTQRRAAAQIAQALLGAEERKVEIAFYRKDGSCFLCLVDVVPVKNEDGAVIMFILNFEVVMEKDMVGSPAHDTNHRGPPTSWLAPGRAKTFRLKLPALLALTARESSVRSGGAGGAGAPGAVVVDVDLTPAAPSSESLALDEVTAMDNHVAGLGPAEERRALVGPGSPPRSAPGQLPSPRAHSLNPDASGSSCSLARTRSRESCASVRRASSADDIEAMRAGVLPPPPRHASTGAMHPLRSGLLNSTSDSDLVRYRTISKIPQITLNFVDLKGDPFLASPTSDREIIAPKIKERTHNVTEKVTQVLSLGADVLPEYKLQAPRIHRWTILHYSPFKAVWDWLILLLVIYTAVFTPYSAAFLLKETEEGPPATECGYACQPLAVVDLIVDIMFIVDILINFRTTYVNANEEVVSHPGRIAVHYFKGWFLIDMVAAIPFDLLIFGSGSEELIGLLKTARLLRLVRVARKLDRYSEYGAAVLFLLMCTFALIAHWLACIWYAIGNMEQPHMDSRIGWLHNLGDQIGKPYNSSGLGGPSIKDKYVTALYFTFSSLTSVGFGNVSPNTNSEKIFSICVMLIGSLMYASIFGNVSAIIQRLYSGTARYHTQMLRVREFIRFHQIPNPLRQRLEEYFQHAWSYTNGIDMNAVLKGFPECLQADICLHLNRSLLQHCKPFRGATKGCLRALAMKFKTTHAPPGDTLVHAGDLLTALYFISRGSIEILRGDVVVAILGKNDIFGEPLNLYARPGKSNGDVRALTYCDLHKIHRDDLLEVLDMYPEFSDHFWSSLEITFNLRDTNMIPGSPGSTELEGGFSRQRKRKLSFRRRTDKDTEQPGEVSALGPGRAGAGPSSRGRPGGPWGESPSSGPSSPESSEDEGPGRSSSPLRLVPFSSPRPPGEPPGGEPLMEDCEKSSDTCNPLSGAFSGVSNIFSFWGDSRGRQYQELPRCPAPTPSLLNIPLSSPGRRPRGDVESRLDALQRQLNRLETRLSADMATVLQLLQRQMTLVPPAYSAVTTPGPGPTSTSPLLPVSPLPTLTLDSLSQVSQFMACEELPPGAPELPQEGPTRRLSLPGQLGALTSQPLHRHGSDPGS
# Protocol: primary screen, population patch clamp on CHO cells stably expressing hERG; higher = less effect of the substance
# Method: Briefly, Chinese hamster ovary (CHO) cells stably expressing the hERG channel were dislodged from tissue culture flasks and dispensed into PPC plates. […] During the recording, background leak currents were estimated by a 100 ms step to -80 mV from an initial holding potential of -70 mV and subtracted from the subsequent current measurement. The campaign was conducted in two phases using slight differences in recording protocol. […]
In all, about 310,000 compounds went through this assay and about 14,000 (4.5%) showed an effect of 50% or more. Effects have a minus sign here. For the sample, strong results were picked, then their nearest neighbours and some compounds at random.
Quantity: hERG current change (%, negative = inhibition) at 10uM (%)
Unit % implied. Number only.

Recorded results for 6 compounds are shown here.
Compound: O=C(O)C(Nc1nc(C(F)(F)F)nc2ccccc12)c1ccccc1 (stereo not shown)
Experimental value: 26.2

Compound: O=C(Nc1ccccc1)NC1CCN(Cc2nnnn2C2CCCCC2)CC1
Experimental value: -29.2

Compound: CCOCCCNC(=O)C1CCN(c2cc(C)nc3c(-c4ccc(OC)c(OC)c4)c(C)nn23)CC1
Experimental value: -7.5

Compound: CCCCN=Cc1sc2ccc(OCC)cc2c1O
Experimental value: 3.66

Compound: O=C(Cc1coc2cc3c(cc12)CCC3)OCc1cc(=O)n2c(n1)sc1ccccc12
Experimental value: 4.53

Compound: Cc1ccnc(NC(=O)C2CCCN(c3ncnc4c3nc3n4CCCCC3)C2)c1 (stereo not shown)
Experimental value: -45.6

I am curious: what hERG current change (%, negative = inhibition) at 10uM value has been reported for O=c1[nH]c2ccccc2n2c(C(F)(F)F)nnc12 ?
14

What does the data say about its hERG current change (%, negative = inhibition) at 10uM? Entry: O=C(Nc1ccc(Cl)cn1)C1CCCN(c2ncnc3c2nc2n3CCCCC2)C1 (stereo not shown)
-57.7

Name the reported hERG current change (%, negative = inhibition) at 10uM value associated with the compound COc1ccc(OC)c(NC(=O)CSc2nnc(C3CCCCC3)n2N)c1
-17.4

Item under review: CC(OC(=O)CCC(=O)c1ccccc1)C(=O)Nc1ccc(F)cc1 (stereo not shown) . Reported hERG current change (%, negative = inhibition) at 10uM?
-284

---

# Tested system: human ether-à-go-go-related gene (hERG) potassium channel (human, UniProt Q12809);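 also: peak tail current of the secondary pulse compared with the same well before compound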
# Protocol: primary screen, population patch clamp on CHO cells stably expressing hERG; higher = less effect of the substance
Out of some 310,000 compounds screened, about 14,000 (4.5%) showed an effect of 50% or more. Effects have a minus sign here. What follows is part of a selection rich in strong results, with near analogues and random picks from the rest.
Catalogue of hERG current change (%, negative = inhibition) at 10uM readings, one per entry.
Write the number in % without appending the unit.

Look over these answered cases.
Compound: Cc1cccc(-n2ncc3c(N4CC(C)CC(C)C4)ncnc32)c1 (stereo not drawn)
Unit symbol: %
Experimental value: 8
--
Compound: COn1c(-c2ccc(Cl)cc2)nc2ccc(Cl)cc21
Unit symbol: %
Experimental value: -4.56
--
Compound: COc1ccc(-c2noc(CN3CCCCC3)n2)cc1OC
Unit symbol: %
Experimental value: -1.49
--
Compound: COc1ccc(N=C2SCC(c3ccc([N+](=O)[O-])cc3)=NN2CCO)cc1
Unit symbol: %
Experimental value: -53.1
--
Compound: COCC(C)OC(=O)/C(C#N)=C\c1coc2ccc(C)cc2c1=O (stereo not drawn)
Unit symbol: %
Experimental value: -20.9

Reported hERG current change (%, negative = inhibition) at 10uM for COc1ccc(CNC(=O)C2CCC(CNS(=O)(=O)c3cccs3)CC2)cc1 (stereo not drawn) : what is it?
-18.9

Suppose we examine the compound O=C(CN1C(=O)/C(=C/c2c(F)cccc2Cl)Oc2ccccc21)NCc1ccco1 ; what hERG current change (%, negative = inhibition) at 10uM value has been reported?
10.9

Need hERG current change (%, negative = inhibition) at 10uM of O=c1[nH]cnc2cc(-c3ccc(Br)cc3)sc12 , thanks.
12.3

Can you look up the measured hERG current change (%, negative = inhibition) at 10uM of N/C(=N\N=C\c1ccnc2ccccc12)SC1CC(=O)N(c2ccc(Br)cc2)C1=O (stereo not drawn) for me?
0.637

Can you share its hERG current change (%, negative = inhibition) at 10uM? I mean this compound: Cc1ccc(C(=O)N/C(=C\c2ccccc2)C(=O)NCc2ccncc2)cc1
-71.2

Please give the measured hERG current change (%, negative = inhibition) at 10uM for this compound: COc1ccc(NC(=O)CS(=O)CC(=O)NCC2OCCc3ccccc32)cc1 (stereo not drawn)
16.2
